These entries and their values trace back to the supplement of paper PMC7877785.

- Protocol: self-splicing fitness, log relative to wild type (ln ratio); higher = more splicing; Tetrahymena group I intron in knt gene, E. coli kanamycin selection, DiMSum; sequences stand for … in CUCUCU…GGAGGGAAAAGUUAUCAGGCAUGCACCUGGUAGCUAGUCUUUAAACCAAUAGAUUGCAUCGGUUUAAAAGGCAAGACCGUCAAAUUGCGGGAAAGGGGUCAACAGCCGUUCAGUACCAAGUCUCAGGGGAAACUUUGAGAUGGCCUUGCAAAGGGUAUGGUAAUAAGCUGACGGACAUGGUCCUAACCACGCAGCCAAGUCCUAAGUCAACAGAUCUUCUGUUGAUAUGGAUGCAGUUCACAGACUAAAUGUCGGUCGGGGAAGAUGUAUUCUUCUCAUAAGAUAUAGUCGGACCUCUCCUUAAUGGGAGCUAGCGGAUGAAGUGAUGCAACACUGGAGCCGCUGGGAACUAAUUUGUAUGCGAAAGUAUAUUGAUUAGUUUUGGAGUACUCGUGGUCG;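 also: selection with 25 µg/mL kanamycin versus none on LB agar overnight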
- Run conditions: 37 °C
Given measured self-splicing fitness (ln), output Fulfilled if it is greater than or equal to -1 and Not fulfilled if not.

Example results:
INSERT INTO results (item_sequence, class_assignment) VALUES
  ('GAAAAGCAAUAUUACGCGAA', 'Not fulfilled'),
  ('UGGAAGCAAUAUUACGAAUU', 'Not fulfilled'),
  ('GCCAAGCAAUAUUACGUCGG', 'Not fulfilled'),
  ('AUGAAGCAAUAUUACGGUCA', 'Fulfilled'),
  ('GUGAAGCAAUAUUACGCUCA', 'Not fulfilled'),
  ('UACCAGCAAUAUUACGUGCC', 'Fulfilled'),
  ('CGAUAGCAAUAUUACGGCAC', 'Not fulfilled'),
  ('CCUGAGCAAUAUUACGCUCA', 'Not fulfilled');

Answer whether self-splicing fitness (ln) of CACUAGCAAUAUUACGGGCG is greater than or equal to -1.
Fulfilled

And then CGAAAGCAAUAUUACGAAGA , what is it?
Fulfilled

And then ACGAAGCAAUAUUACGCAGU , what is it?
Not fulfilled

And then GCUUAGCAAUAUUACGAGUG , what is it?
Fulfilled

And then CAGCAGCAAUAUUACGCACU , what is it?
Not fulfilled

And then CCCCAGCAAUAUUACGUGGA , what is it?
Not fulfilled

And then UUGGAGCAAUAUUACGGGUA , what is it?
Not fulfilled

And then CUUGAGCAAUAUUACGUCGU , what is it?
Not fulfilled

And then GGGGAGCAAUAUUACGCCGU , what is it?
Fulfilled

And then AUUUAGCAAUAUUACGCAAG , what is it?
Fulfilled

And then GAGUAGCAAUAUUACGUGUC , what is it?
Not fulfilled

And then UCUGAGCAAUAUUACGGCUC , what is it?
Not fulfilled

And then CGGAAGCAAUAUUACGUAUG , what is it?
Fulfilled
